Attribution: the supplement of paper PMC10567573

B1: DCTD (parent)
chain: VKGCSMYVALFPCNECAKLIIQAG

# Variants of: B1
# procedure-details: protein stability index of a GFP-peptide fusion (GPS, HEK-293T) (PSI 1-6); higher = more stable;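 note: lentivirally expressed fusions sorted by FACS into six bins by GFP to DsRed ratio, PSI derived from sequencing read proportions per bin multiplied by bin number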
# measurement-conditions: c terminus: a fixed tail appended

mutant-label: V8P
protein stability index: 2.22
--
mutant-label: V8H
protein stability index: 2.37
--
mutant-label: A23G
protein stability index: 2.31
--
mutant-label: G24T
protein stability index: 3.17
--
mutant-label: M6Y
protein stability index: 2.7
--
mutant-label: N14M
protein stability index: 2.9
--
mutant-label: G3T
protein stability index: 3.43
--
mutant-label: V8K
protein stability index: 3.21
--
mutant-label: I21T
protein stability index: 1.83
--
mutant-label: E15W
protein stability index: 4.68
--
mutant-label: G3M
protein stability index: 4.03
--
mutant-label: S5E
protein stability index: 3.58
--
mutant-label: A17I
protein stability index: 3.08
--
mutant-label: Y7A
protein stability index: 2.65
--
mutant-label: M6E
protein stability index: 2.2
--
mutant-label: Y7I
protein stability index: 3.49
--
mutant-label: K18C
protein stability index: 4.05
--
mutant-label: V1A
protein stability index: 1.7
--
mutant-label: A23E
protein stability index: 2.7
--
mutant-label: Y7W
protein stability index: 2.92
--
mutant-label: G3W
protein stability index: 4.42
--
mutant-label: K2P
protein stability index: 2.71
--
mutant-label: V1C
protein stability index: 2.61
--
mutant-label: G24E
protein stability index: 2.98
--
mutant-label: C4R
protein stability index: 3.18
--
mutant-label: I21V
protein stability index: 2.14
--
mutant-label: C16M
protein stability index: 3.57
--
mutant-label: F11Y
protein stability index: 2.95
--
mutant-label: E15H
protein stability index: 3.15
--
mutant-label: M6D
protein stability index: 1.7
--
mutant-label: V8N
protein stability index: 1.49
--
mutant-label: L19C
protein stability index: 3.04
--
mutant-label: A23P
protein stability index: 2.84
--
mutant-label: Q22E
protein stability index: 3.39
--
mutant-label: I21S
protein stability index: 2.24
--
mutant-label: S5W
protein stability index: 3.75
--
mutant-label: M6R
protein stability index: 1.58
--
mutant-label: K2W
protein stability index: 3.93
--
mutant-label: L19D
protein stability index: 2.4
--
mutant-label: M6H
protein stability index: 2.21
--
mutant-label: G3N
protein stability index: 3.06
--
mutant-label: M6A
protein stability index: 3.35
--
mutant-label: I20H
protein stability index: 2.4
--
mutant-label: P12Q
protein stability index: 1.81
--
mutant-label: C4T
protein stability index: 2.88
--
mutant-label: K2S
protein stability index: 3.47
--
mutant-label: K2F
protein stability index: 2.27
--
mutant-label: V1S
protein stability index: 3.18
--
mutant-label: V8Y
protein stability index: 3.08
--
mutant-label: G3K
protein stability index: 2.53
--
mutant-label: E15G
protein stability index: 3.97
--
mutant-label: G24H
protein stability index: 3.84
--
mutant-label: Y7M
protein stability index: 4.09
--
mutant-label: V8W
protein stability index: 1.9
--
mutant-label: Q22P
protein stability index: 2.51
--
mutant-label: K18I
protein stability index: 1.99
--
mutant-label: G3F
protein stability index: 2.27
--
mutant-label: C4I
protein stability index: 2.89
--
mutant-label: Y7L
protein stability index: 4.45
--
mutant-label: P12V
protein stability index: 4.55
--
mutant-label: E15Q
protein stability index: 2.62
--
mutant-label: L19E
protein stability index: 5.26
--
mutant-label: V1H
protein stability index: 1.54
--
mutant-label: V8D
protein stability index: 1.62
--
mutant-label: C4V
protein stability index: 2.86
--
mutant-label: P12R
protein stability index: 2.9
--
mutant-label: V1P
protein stability index: 2.74
--
mutant-label: V1I
protein stability index: 2.68
--
mutant-label: G24A
protein stability index: 2
--
mutant-label: E15V
protein stability index: 1.31
--
mutant-label: A17Q
protein stability index: 3.48
--
mutant-label: M6C
protein stability index: 2.7
--
mutant-label: K18H
protein stability index: 2.55
--
mutant-label: A9G
protein stability index: 3.16
--
mutant-label: C4A
protein stability index: 2.19
--
mutant-label: C4E
protein stability index: 1.71
--
mutant-label: V1E
protein stability index: 2.15
--
mutant-label: G3A
protein stability index: 2.9
--
mutant-label: G3C
protein stability index: 2.07
--
mutant-label: A17N
protein stability index: 3.32
--
mutant-label: G3V
protein stability index: 2.23
--
mutant-label: I21L
protein stability index: 1.76
--
mutant-label: V1K
protein stability index: 3.98
--
mutant-label: M6Q
protein stability index: 3.17
--
mutant-label: G24N
protein stability index: 2.86
--
mutant-label: L19T
protein stability index: 2.23
--
mutant-label: V8Q
protein stability index: 4.51
--
mutant-label: L10P
protein stability index: 3.06
--
mutant-label: K2R
protein stability index: 2.54
--
mutant-label: C4S
protein stability index: 3.15
--
mutant-label: S5K
protein stability index: 2.44
